- targetDesc: adenosine A2a receptor (Homo sapiens)
- testProtocol: Indirect determination of the adenosine agonism by way of gene expression (luciferase reporter), A2a cells
- condition: CHO cells stably transfected with A2a receptor cDNA; 50% of maximum stimulation of luciferase
pEC50: −log10 of the molar value.
valueType: pEC50

inputSmiles: N#Cc1c(OCCO)nc(SCc2csc(-c3ccc(Cl)cc3)n2)c(C#N)c1-c1ccc(OCCO)cc1
pEC50: 6.16
--
inputSmiles: COc1cccc(CSc2nc(OC)c(C#N)c(-c3ccc(OCCO)cc3)c2C#N)c1
pEC50: 5.95
--
inputSmiles: COc1nc(SCc2csc(-c3ccc(Cl)cc3)n2)c(C#N)c(-c2ccc(OCCO)cc2)c1C#N
pEC50: 5.91

(a) CNC(=O)c1cc(CSc2nc(OCCO)c(C#N)c(-c3ccccc3)c2C#N)ccn1
(b) N#Cc1c(OCCCO)nc(SCc2csc(-c3ccc(Cl)cc3)n2)c(C#N)c1-c1ccc(OCCO)cc1
Select the item whose pEC50 value is smaller, choosing between a and b . // caller expects the label of the chosen entry
a
(a: 5.76, b: 6.16)

---

- targetDesc: adenosine A1 receptor (Homo sapiens, UniProt P30542)
- Construct: expressed in transfected cells; host or cells: CHO (Chinese Hamster Ovary) permanent line, stably transfected
- Sequence (P30542 1-326): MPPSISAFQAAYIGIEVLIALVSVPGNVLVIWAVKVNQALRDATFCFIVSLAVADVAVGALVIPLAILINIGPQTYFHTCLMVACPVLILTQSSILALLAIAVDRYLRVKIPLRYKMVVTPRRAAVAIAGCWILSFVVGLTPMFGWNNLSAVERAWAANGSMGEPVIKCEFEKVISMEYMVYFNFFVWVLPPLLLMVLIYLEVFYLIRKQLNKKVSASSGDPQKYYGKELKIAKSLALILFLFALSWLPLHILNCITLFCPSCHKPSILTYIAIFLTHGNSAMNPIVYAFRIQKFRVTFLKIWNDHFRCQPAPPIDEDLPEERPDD
- testProtocol: Indirect determination of the adenosine agonism by way of gene expression (luciferase reporter), A1 cells
- Assay type: cell-based
- condition: CHO cells stably transfected with A1 receptor cDNA; 1 μM forskolin; 50% inhibition of luciferase response
valueType: EC50 (nM)

Look over these answered cases.
inputSmiles: COc1nc(SCc2csc(-c3ccc(Cl)cc3)n2)c(C#N)c(-c2ccc(OCCO)cc2)c1C#N
targetDesc: adenosine A1 receptor (Homo sapiens, UniProt P30542)
experimentalResult: 0.3
--
inputSmiles: CCOc1nc(SCc2coc(-c3ccc(Cl)cc3)n2)c(C#N)c(-c2ccc(OCCO)cc2)c1C#N
targetDesc: adenosine A1 receptor (Homo sapiens, UniProt P30542)
experimentalResult: 4.8
--
inputSmiles: COc1nc(SCc2c[nH]cn2)c(C#N)c(-c2ccc(OCCO)cc2)c1C#N
targetDesc: adenosine A1 receptor (Homo sapiens, UniProt P30542)
experimentalResult: 73.2

(I) CCOc1nc(SCc2csc(-c3ccc(Cl)cc3)n2)c(C#N)c(-c2ccc(OCCO)cc2)c1C#N
(II) CCCOc1nc(SCc2csc(-c3ccc(Cl)cc3)n2)c(C#N)c(-c2ccccc2)c1C#N
(III) N#Cc1c(OCCO)nc(SCc2csc(-c3ccc(Cl)cc3)n2)c(C#N)c1-c1ccc(OCCO)cc1
Order the records, beginning with the lowest EC50 and ending with the highest. Reply with the item labels sorted in the order that was asked for.
III, I, II
(III: 0.5 nM, I: 0.8 nM, II: 1.3 nM)

---

- targetDesc: UniProt:P29274
- testProtocol: Indirect determination of the adenosine agonism by way of gene expression (luciferase reporter), A2a cells
- condition: CHO cells stably transfected with A2a receptor cDNA; 50% of maximum stimulation of luciferase
valueType: EC50 (nM)

inputSmiles: COc1nc(SCc2cccnc2)c(C#N)c(-c2ccc(OCCO)cc2)c1C#N
EC50 / nM: 547

(I) COc1nc(SCc2csc(-c3ccc(Cl)cc3)n2)c(C#N)c(-c2ccc(OC[C@@H](O)CO)cc2)c1C#N
(II) CCOc1nc(SCc2csc(-c3ccc(Cl)cc3)n2)c(C#N)c(-c2ccc(OCCO)cc2)c1C#N
Select the item whose EC50 value is smaller, choosing between I and II . // caller expects the label of the chosen entry
II
(II: 527 nM, I: 1260 nM)

---

- targetDesc: adenosine A2b receptor (Homo sapiens, UniProt P29275)
- Sequence (P29275 1-332): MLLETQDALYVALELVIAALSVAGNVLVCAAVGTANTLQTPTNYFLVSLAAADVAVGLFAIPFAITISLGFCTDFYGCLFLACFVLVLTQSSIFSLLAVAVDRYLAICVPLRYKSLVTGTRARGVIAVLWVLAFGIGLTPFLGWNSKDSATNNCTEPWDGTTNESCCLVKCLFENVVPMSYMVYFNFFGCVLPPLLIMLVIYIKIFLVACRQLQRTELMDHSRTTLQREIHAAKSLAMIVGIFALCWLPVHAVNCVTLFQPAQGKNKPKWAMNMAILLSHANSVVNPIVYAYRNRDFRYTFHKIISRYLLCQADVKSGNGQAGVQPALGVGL
- testProtocol: Indirect determination of the adenosine agonism by way of gene expression (luciferase reporter), A2b cells
- condition: CHO cells stably transfected with A2b receptor cDNA; 50% of maximum stimulation of luciferase
valueType: EC50 (nM)

(P) COc1nc(SCc2csc(-c3ccc(Cl)cc3)n2)c(C#N)c(-c2ccc(OCCO)cc2)c1C#N
(Q) N#Cc1c(OCCO)nc(SCc2csc(-c3ccc(Cl)cc3)n2)c(C#N)c1-c1ccc(OCCO)cc1
Select the item whose EC50 value is smaller, choosing between P and Q . // caller expects the label of the chosen entry
P

(1) COc1nc(SCc2c[nH]cn2)c(C#N)c(-c2ccc(OCCO)cc2)c1C#N
(2) N#Cc1c(OCCCO)nc(SCc2csc(-c3ccc(Cl)cc3)n2)c(C#N)c1-c1ccc(OCCO)cc1
Select the item whose EC50 value is smaller, choosing between 1 and 2 . // caller expects the label of the chosen entry
1
(1: 28.6 nM, 2: 263 nM)

(a) N#Cc1c(OCCCO)nc(SCc2csc(-c3ccc(Cl)cc3)n2)c(C#N)c1-c1ccccc1
(b) COc1nc(SCc2csc(-c3ccc(Cl)cc3)n2)c(C#N)c(-c2ccc(OC[C@@H](O)CO)cc2)c1C#N
Select the item whose EC50 value is smaller, choosing between a and b . // caller expects the label of the chosen entry
b
(b: 142 nM, a: 534 nM)

---

- targetDesc: adenosine A2a receptor (Homo sapiens, UniProt P29274)
- Construct: expressed in transfected cells; host or cells: CHO (Chinese Hamster Ovary) permanent line, stably transfected
- Sequence (P29274 whole entry): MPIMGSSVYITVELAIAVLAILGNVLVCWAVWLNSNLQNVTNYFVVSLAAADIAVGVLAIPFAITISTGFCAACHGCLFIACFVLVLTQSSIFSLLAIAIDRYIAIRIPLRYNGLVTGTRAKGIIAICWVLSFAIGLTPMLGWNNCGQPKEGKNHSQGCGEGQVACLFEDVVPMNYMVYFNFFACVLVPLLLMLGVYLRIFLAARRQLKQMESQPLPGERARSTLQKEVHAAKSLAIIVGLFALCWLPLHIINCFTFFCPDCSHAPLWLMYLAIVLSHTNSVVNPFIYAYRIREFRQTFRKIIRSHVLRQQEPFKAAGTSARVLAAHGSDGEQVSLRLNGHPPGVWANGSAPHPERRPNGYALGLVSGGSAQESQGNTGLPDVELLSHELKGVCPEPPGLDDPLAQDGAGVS
- testProtocol: Indirect determination of the adenosine agonism by way of gene expression (luciferase reporter), A2a cells
- Assay type: cell-based
- condition: CHO cells stably transfected with A2a receptor cDNA; 50% of maximum stimulation of luciferase
# reported EC50; entries follow

Look over these answered cases.
inputSmiles: CCCOc1nc(SCc2csc(-c3ccc(Cl)cc3)n2)c(C#N)c(-c2ccccc2)c1C#N
experimentalResult: > 3 µM
--
inputSmiles: N#Cc1c(OCCCO)nc(SCc2csc(-c3ccc(Cl)cc3)n2)c(C#N)c1-c1cncs1
experimentalResult: > 3 µM

Quick one: give measured EC50 for `COc1nc(SCc2c[nH]cn2)c(C#N)c(-c2ccc(OCCO)cc2)c1C#N`
> 3 µM

---

- targetDesc: adenosine A1 receptor (Homo sapiens, UniProt P30542)
- Construct: expressed in transfected cells; host or cells: CHO (Chinese Hamster Ovary) permanent line, stably transfected
- testProtocol: Indirect determination of the adenosine agonism by way of gene expression (luciferase reporter), A1 cells
- Assay type: cell-based
- condition: CHO cells stably transfected with A1 receptor cDNA; 1 μM forskolin; 50% inhibition of luciferase response
- From the text: B-1. Indirect Determination of the Adenosine Agonism by Way of Gene Expression Cells of the CHO (Chinese Hamster Ovary) permanent line are transfected stably with the cDNA for the adenosine receptor subtypes A1, A2a and A2b. The adenosine A1 receptors are coupled to the adenylate cyclase by way of Gi proteins, while the adenosine A2a and A2b receptors are coupled by way of Gs proteins. In correspondence with this, the formation of cAMP in the cell is inhibited or stimulated, respectively. […]
valueType: EC50 (nM)

(A) N#Cc1c(OCCCO)nc(SCc2csc(-c3ccc(Cl)cc3)n2)c(C#N)c1-c1ccc(OCCO)cc1
(B) N#Cc1c(OCCCO)nc(SCc2csc(-c3ccc(Cl)cc3)n2)c(C#N)c1-c1cncs1
(C) CNC(=O)c1cc(CSc2nc(OCCO)c(C#N)c(-c3ccccc3)c2C#N)ccn1
// smallest EC50 at index 0, largest at the end Reply with the item labels sorted in the order that was asked for.
C, A, B
(C: 0.3 nM, A: 0.6 nM, B: 5.7 nM)

(A) COc1cccc(CSc2nc(OC)c(C#N)c(-c3ccc(OCCO)cc3)c2C#N)c1
(B) COc1nc(SCc2csc(-c3ccc(Cl)cc3)n2)c(C#N)c(-c2ccc(OC[C@@H](O)CO)cc2)c1C#N
(C) COc1nc(SCc2cccnc2)c(C#N)c(-c2ccc(OCCO)cc2)c1C#N
Order the records, beginning with the lowest EC50 and ending with the highest. Reply with the item labels sorted in the order that was asked for.
A, C, B
